Target: Adrenergic receptor alpha-2 (Rattus norvegicus, UniProt P22086+P19328+P22909)
Sequence (P22086 whole entry): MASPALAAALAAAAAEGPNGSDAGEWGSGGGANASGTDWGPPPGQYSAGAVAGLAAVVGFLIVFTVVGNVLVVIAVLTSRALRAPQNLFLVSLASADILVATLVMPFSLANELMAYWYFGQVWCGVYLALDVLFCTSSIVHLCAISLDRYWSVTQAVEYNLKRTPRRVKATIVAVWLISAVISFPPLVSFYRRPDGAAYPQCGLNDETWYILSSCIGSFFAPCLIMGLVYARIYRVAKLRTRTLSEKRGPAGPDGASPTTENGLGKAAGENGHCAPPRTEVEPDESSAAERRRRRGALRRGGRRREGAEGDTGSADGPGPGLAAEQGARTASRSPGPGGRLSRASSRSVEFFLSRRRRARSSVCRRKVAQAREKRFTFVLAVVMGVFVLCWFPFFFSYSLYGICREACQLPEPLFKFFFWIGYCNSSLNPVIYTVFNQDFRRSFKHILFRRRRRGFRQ
Sequence (P19328 whole entry): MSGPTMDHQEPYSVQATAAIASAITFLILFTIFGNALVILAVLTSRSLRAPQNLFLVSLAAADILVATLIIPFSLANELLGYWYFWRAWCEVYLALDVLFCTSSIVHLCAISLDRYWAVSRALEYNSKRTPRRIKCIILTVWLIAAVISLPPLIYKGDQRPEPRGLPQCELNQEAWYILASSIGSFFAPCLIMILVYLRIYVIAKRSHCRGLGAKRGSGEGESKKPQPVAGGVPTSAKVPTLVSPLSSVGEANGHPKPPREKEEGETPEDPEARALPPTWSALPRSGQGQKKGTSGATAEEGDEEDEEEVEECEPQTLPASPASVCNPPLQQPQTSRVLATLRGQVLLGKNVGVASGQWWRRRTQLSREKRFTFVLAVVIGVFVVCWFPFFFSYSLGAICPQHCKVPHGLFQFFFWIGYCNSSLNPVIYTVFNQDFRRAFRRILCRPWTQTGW
Sequence (P22909 whole entry): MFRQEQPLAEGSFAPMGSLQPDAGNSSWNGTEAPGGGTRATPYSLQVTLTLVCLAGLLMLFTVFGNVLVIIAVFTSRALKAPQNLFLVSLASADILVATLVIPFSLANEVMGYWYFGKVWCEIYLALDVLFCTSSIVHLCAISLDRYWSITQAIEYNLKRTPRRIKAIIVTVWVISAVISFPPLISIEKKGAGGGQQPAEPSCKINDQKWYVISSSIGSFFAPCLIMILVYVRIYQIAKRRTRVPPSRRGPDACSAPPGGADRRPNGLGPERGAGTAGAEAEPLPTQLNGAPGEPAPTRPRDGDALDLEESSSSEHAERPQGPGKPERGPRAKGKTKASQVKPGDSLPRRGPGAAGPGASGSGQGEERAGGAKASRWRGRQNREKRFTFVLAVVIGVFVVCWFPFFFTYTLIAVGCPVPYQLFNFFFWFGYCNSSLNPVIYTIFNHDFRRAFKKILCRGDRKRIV
Experiment: Binding of [3H]clonidine to alpha-2-adrenergic receptor of rat cerebral cortical membranes
Type: cell membranes, Membrane
Here, each record is paired with measured Ki data.
assay readout: Ki (µM)

CNC[C@@H](O)c1ccc(O)c(O)c1F = 0.053
NCCc1ccc(O)c(O)c1 = 0.058
CNCC(O)c1ccc(O)c(O)c1F (racemic) = 0.06
CNC[C@H](O)c1ccc(O)c(O)c1F = 0.067
